biological target: UniProt Q9Y6E0
Sequence (Q9Y6E0 whole entry): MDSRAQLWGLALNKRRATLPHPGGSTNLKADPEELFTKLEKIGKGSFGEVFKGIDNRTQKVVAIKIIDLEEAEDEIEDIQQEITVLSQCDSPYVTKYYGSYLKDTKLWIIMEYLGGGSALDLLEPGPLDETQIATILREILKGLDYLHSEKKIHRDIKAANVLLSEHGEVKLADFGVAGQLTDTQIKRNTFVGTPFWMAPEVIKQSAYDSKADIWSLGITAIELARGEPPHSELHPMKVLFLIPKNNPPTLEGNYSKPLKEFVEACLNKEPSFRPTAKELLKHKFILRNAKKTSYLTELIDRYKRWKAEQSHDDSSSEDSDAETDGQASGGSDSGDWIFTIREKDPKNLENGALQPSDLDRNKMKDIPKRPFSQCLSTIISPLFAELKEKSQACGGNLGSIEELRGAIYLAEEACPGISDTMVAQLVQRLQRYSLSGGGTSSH
Assay Readout: IC50

Assay UniProt Q9Y6E0, sample NC(N)=NCCC[C@H](NCN1CCN(C(=O)c2cc(Cc3n[nH]c(=O)c4ccccc34)ccc2F)CC1)C(=O)O [PPNR-4] , IC50 read: > 10 µM

====

Molecular target: FLT3 (Homo sapiens, UniProt P36888)
Sequence (P36888 27-993): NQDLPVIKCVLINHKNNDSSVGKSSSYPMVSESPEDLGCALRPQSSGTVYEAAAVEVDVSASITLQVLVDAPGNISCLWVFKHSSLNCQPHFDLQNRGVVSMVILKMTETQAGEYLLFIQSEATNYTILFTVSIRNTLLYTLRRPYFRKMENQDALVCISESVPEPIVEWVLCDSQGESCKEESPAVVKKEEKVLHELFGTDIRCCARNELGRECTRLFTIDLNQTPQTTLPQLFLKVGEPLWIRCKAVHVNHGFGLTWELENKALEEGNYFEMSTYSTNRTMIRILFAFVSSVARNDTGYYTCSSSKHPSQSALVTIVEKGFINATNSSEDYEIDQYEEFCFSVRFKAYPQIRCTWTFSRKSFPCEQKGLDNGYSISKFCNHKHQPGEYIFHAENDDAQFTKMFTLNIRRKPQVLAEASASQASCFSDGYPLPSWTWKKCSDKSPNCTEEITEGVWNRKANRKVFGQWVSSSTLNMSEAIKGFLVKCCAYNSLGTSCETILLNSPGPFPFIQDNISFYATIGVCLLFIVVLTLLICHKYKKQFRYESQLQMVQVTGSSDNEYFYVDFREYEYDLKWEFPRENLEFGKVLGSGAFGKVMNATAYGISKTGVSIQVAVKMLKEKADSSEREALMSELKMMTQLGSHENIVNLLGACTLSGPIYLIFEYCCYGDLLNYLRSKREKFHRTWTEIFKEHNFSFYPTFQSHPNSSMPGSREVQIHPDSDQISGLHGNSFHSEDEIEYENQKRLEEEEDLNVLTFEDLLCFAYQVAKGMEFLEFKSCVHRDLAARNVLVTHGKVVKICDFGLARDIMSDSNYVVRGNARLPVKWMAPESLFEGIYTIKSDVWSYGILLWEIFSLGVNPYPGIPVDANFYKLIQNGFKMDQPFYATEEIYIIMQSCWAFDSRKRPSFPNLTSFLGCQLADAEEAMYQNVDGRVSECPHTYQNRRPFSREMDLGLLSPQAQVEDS
Assay Readout: IC50

Sure, the documented IC50 for NC(N)=NCCC[C@H](NCN1CCN(C(=O)c2cc(Cc3n[nH]c(=O)c4ccccc34)ccc2F)CC1)C(=O)O is > 10 µM

Values from paper PMC11637875
